system: Fibroblast; test: Multiplex assay against human fibroblast; assay type: toxicity, cell-based; conditions: 12 h, 10 µM, compound concentration 10 uM, replicate 1
Property: Population Healthy Nuclei (%); scope: individual molecules
Answer with a number only, understood to be in %.

Entry under review: O=c1cc(N2CCOCC2)oc2c(-c3cccc4c3sc3ccccc34)cccc12 . Reported Population Healthy Nuclei (%)?
28

Entry under review: Cc1ccc2c(c1)c1c(n2CCc2ccc(C)nc2)CCN(C)C1 [LATREPIRDINE] . Reported Population Healthy Nuclei (%)?
47

Entry under review: C=CC(=O)Nc1ccc2[nH]c(=O)n(C3CCN(Cc4ccc(-c5nc6cc[nH]c(=O)c6cc5-c5ccccc5)cc4)CC3)c2c1 . Reported Population Healthy Nuclei (%)?
56

Entry under review: CC(C)(C)NC[C@H](O)COc1nsnc1N1CCOCC1 . Reported Population Healthy Nuclei (%)?
40

Entry under review: CC(C)OC(=O)N1CCC(Oc2ncnc3c2cnn3-c2ccc(S(C)(=O)=O)cc2F)CC1 . Reported Population Healthy Nuclei (%)?
43
